- Tested on: fetal-like hiPSC-CM monolayers
- assay_remarks: 96-well optical mapping of action potentials (FluoVolt), fetal-like monolayers
- Format: cell-based, human
- condition_context: maximal effect on APD independent of dose; APD80 divided by vehicle control APD80; 30 min treatment; concentrations up to 10 µM
measured_attribute: Maximum APD 80 Prolongation Risk Score (Fetal-like hiPSC-CM)

Worked examples, 4 molecules total:
| molecule | measurement_target | quantitative_result |
| --- | --- | --- |
| CC/C(=C(\c1ccccc1)c1ccc(OCCN(C)C)cc1)c1ccccc1 | fetal-like hiPSC-CM monolayers | 1.12 |
| COc1ccc([C@@H]2Sc3ccccc3N(CCN(C)C)C(=O)[C@@H]2OC(C)=O)cc1 | fetal-like hiPSC-CM monolayers | 0.97 |
| C=C[C@H]1C[N@@]2CC[C@H]1C[C@@H]2[C@@H](O)c1ccnc2ccc(OC)cc12 | fetal-like hiPSC-CM monolayers | 1.91 |
| Cc1cn(-c2cc(NC(=O)c3ccc(C)c(Nc4nccc(-c5cccnc5)n4)c3)cc(C(F)(F)F)c2)cn1 | fetal-like hiPSC-CM monolayers | 1.36 |

I. CC(C)(C)c1ccc(C(O)CCCN2CCC(C(O)(c3ccccc3)c3ccccc3)CC2)cc1 (stereo not shown)
II. CN(CCOc1ccc(NS(C)(=O)=O)cc1)CCc1ccc(NS(C)(=O)=O)cc1 [Dofetilide, dofetilide]
III. CNCCC(Oc1ccc(C(F)(F)F)cc1)c1ccccc1 (stereo not shown)
q: Please give the order of these molecules when sorted by Maximum APD 80 Prolongation Risk Score (Fetal-like hiPSC-CM), largest value leading. I would appreciate it if you listed the labels in the requested order.
a: II, I, III

Values were extracted from paper PMC5653750.
